Where do these numbers come from? They come from patent US9345791B2.

Provide the reported melting point of each item.
Numbers only, in °C.

A selection of reference data follows.
// query I would be grateful if you could share the reported melting point for `NC(CO)(CO)CCCCCCCCCCCCCCCF` .
// result 85

// query I would be grateful if you could share the reported melting point for `NC(CO)(CO)CCCCCCCCCCCCCCCCF` .
// result 77

Could you now consider this next compound?
// query I would be grateful if you could share the reported melting point for `NC(CO)(CO)CCc1ccc(CCCCCCF)cc1` .
// result 108

====

Property Label: melting point (°C)
Numbers only, in °C.

A selection of reference data follows.
// query I would be grateful if you could share the reported melting point for CCCCCCCCCCCCCCCCC(N)(CO)CF (centres unmarked) .
// result 52

// query I would be grateful if you could share the reported melting point for `CCCCCCCCCCCCC/C=C/CC(N)(CO)CO` .
// result 57

Could you now consider this next molecule?
// query I would be grateful if you could share the reported melting point for `CCCCCCCCCCCCC/C=C(/F)CC(N)(CO)CO` .
// result 74

====

# Test system: Lymphocytes (T- and B-cells)
# Measurement Notes: Immunosuppressive activity in vivo: peripheral blood lymphopenia, flow cytometry
# Set-up: species or system mice
# Condition Details: intraperitoneally at 1.25 microgramm/kg body weight; blood drawn 24 hours later; percentage
Lab note: anything with CD4+ below 5% is marked YES; values at 5% or higher are marked NO.

// query Please indicate whether the reported CD4+ of `CCCCCCCCCCCCC/C=C(/F)CC(N)(CO)CO` is strictly below 5%.
// result NO

// query Please indicate whether the reported CD4+ of `CN(C)c1cccc2c(S(=O)(=O)NCCCCCCCCCCCCCCCCC(N)(CO)CO)cccc12` is strictly below 5%.
// result NO

// query Please indicate whether the reported CD4+ of `CCCCCCCCCCCCCCC(N)(CO)CO` is strictly below 5%.
// result YES

// query Please indicate whether the reported CD4+ of CCC/C=C(\F)CC(N)COP(=O)(O)O (centres unmarked) is strictly below 5%.
// result NO

// query Please indicate whether the reported CD4+ of CCC/C=C/CC(N)CO (centres unmarked) is strictly below 5%.
// result NO

// query Please indicate whether the reported CD4+ of CCCCCCCCc1ccc(CCC(N)(CO)CO)cc1 [FTY 720, reference compound] is strictly below 5%.
// result YES

Further cases:
// query Please indicate whether the reported CD4+ of CCC/C=C/CC(N)COP(=O)(O)O (centres unmarked) is strictly below 5%.
// result YES

// query Please indicate whether the reported CD4+ of CCCCCCCCCCCCCCC(F)CC(N)(CO)CO (centres unmarked) is strictly below 5%.
// result YES

// query Please indicate whether the reported CD4+ of CCCCCCCCCCCCCCCCC(N)(CO)CF (centres unmarked) is strictly below 5%.
// result NO

====

Provide the reported melting point of each item.

A selection of reference data follows.
// query I would be grateful if you could share the reported melting point for CCCCCCCCCCCCC/C=C(\F)CC(N)(CO)CO [SSS862] .
// result 68 to 70 °C

// query I would be grateful if you could share the reported melting point for CCCCCCCCCCCCCCC(F)CC(N)(CO)CO.Cl (stereo not drawn) [SSS564] .
// result 108 to 110 °C

Could you now consider this next compound?
// query I would be grateful if you could share the reported melting point for CCCCCCCCc1ccc(C(O)CC(N)(CO)CO)cc1 (stereo not drawn) [SSS 563] .
// result 74 to 76 °C
